All values here come from PubChem BioAssay AID2060605.

tested on: 947758-054-R-J2-PDC spheroid growth, percent test/control; assay: Anticancer human tumor 947758-054-R-J2-PDC patient-derived colon adenocarcinoma cell line growth inhibition [CLK]; settings: second compound 10 µM; first compound 0.0316 µM; active compounds read low; spheroids with HUVEC and MSC;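 also: spheroids exposed to compounds for one week before readout; 100% = DMSO vehicle control wells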
value.kind: viability, T/C (%)
Report as a plain number; the unit % is understood.

Lab note: COc1cccc2c1C(=O)c1c(O)c3c(c(O)c1C2=O)CC(O)(C(=O)CO)CC3OC1CC(N)C(O)C(C)O1 (stereo not given) + CNC(=O)c1ccc(Nc2nc(OC3CCCC3)c3c(-c4ccc5nc(C)oc5c4)c[nH]c3n2)c(OC)c1 gave viability, T/C of 23.3

response.value for COC1C=CCC(C)C(C)S(=O)(=O)NC(=O)c2ccc3c(c2)N(CC2CCC21)CC1(CCCc2cc(Cl)ccc21)CO3 (stereo not given) + CN1CCN(c2cc(C(=O)Nc3cc4cc(-c5cnn(C)c5)ccc4cn3)ccn2)CC1 (field: viability, T/C) = 1.19

According to the records, this compound Cn1ncnc1[C@H]1c2n[nH]c(=O)c3cc(F)cc(c23)N[C@@H]1c1ccc(F)cc1 + CN1CCN(c2cc(C(=O)Nc3cc4cc(-c5cnn(C)c5)ccc4cn3)ccn2)CC1 displays viability, T/C of 0.26

# compound CCc1c2c(nc3ccc(O)cc13)-c1cc3c(c(=O)n1C2)COC(=O)[C@]3(O)CC + CN1CCN(c2cc(C(=O)Nc3cc4cc(-c5cnn(C)c5)ccc4cn3)ccn2)CC1 ; its viability, T/C = 0.79

For this compound ( CCCS(=O)(=O)Nc1ccc(F)c(C(=O)c2c[nH]c3ncc(-c4ccc(Cl)cc4)cc23)c1F + CN1CCN(c2cc(C(=O)Nc3cc4cc(-c5cnn(C)c5)ccc4cn3)ccn2)CC1 ), measured viability, T/C is 1.3
